# System: DNA
# test.method.notes: Binding affinity to calf thymus DNA assessed as thermal denaturation temperature at 20 uM
# Type: nucleic-acid assay
# settings: Bos taurus

[
  {
    "smiles.representation": "NCCCC[C@@H](N)C(=O)NCCNc1ccc(NCCNC(=O)[C@H](N)CCCCN)c2c1C(=O)c1ccccc1C2=O",
    "display.unit": "°C",
    "limit.sign": ">",
    "ΔTm": 25
  },
  {
    "smiles.representation": "N[C@@H](Cc1ccc(O)cc1)C(=O)NCCNc1ccc(NCCNC(=O)[C@@H](N)Cc2ccc(O)cc2)c2c1C(=O)c1ccccc1C2=O",
    "display.unit": "°C",
    "limit.sign": "=",
    "ΔTm": 5.2
  },
  {
    "smiles.representation": "CSCC[C@@H](N)C(=O)NCCNc1ccc(NCCNC(=O)[C@H](N)CCSC)c2c1C(=O)c1ccccc1C2=O",
    "display.unit": "°C",
    "limit.sign": "=",
    "ΔTm": 1.6
  },
  {
    "smiles.representation": "CSCC[C@H](N)C(=O)NCCNc1ccc(NCCNC(=O)[C@@H](N)CCSC)c2c1C(=O)c1c(O)ccc(O)c1C2=O",
    "display.unit": "°C",
    "limit.sign": "=",
    "ΔTm": 4.7
  },
  {
    "smiles.representation": "NCCCC[C@H](N)C(=O)NCCNc1ccc(NCCNC(=O)[C@@H](N)CCCCN)c2c1C(=O)c1ccccc1C2=O",
    "display.unit": "°C",
    "limit.sign": ">",
    "ΔTm": 25
  }
]

Hello, the source for this data is ChEMBL document CHEMBL1143145, in case you need it.
